From: paper PMC10397247

Target: T1, 4H683-bH
T1 chain: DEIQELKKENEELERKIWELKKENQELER
Assay: two-hybrid library CCNG1;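 further: natural log of median RNA to DNA barcode read ratio; higher means stronger binding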
value kind: interaction score

binder | interaction score
DKIQELKKEIEELERENWELKKEIQELKR [4H2586-bH] | 0.126
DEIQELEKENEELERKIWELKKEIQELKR [4H170-bH] | -0.173
DKIQELKKEIEELKRKNWELEKEIQELER [4H2673-bH] | 0.639

P: DKNQELKKKNEELKRKIWELKKEIQELER [4H4073-bH]
Q: DKIQELKKEIEELKREIWELEKENQELER [4H2627-bH]
Input line: // which entry reports the smaller interaction score, P or Q ? Respond with the label that goes with your answer.
Output line: P
(P: -0.249, Q: 0.431)
